Experiment: CEETOX_H295R_OHPREG: CeeTox H295R High-throughput Steroidogenesis Assay for OH-Pregnenolone (OHPREG) (AID 2283434)
Conditions: actives raise or lower the signal
Experimental: CEETOX_H295R is a cell-based, multiplexed-readout assay that uses H295R, a human adrenal gland cell line, with measurements taken at 48 hours after chemical dosing in a 96-well plate.CEETOX_H295R_OHPREG is one of 23 assay component(s) measured or calculated from the CEETOX_H295R assay. […] This assay endpoint, CEETOX_H295R_OHPREG, was analyzed with bidirectional fitting relative to DMSO as the negative control and baseline of activity. […]
Activity calls are given as the source filed them. The calls were made as follows: active = hit-call score of the fitted dose curve at least 0.9, where 1 is the maximum; inactive = score below 0.9.
measurement_label: AC50

These solved cases illustrate the format of a correct answer.
Cc1cccc(N)c1 | inactive
CCC(C)(C)c1ccc(O)cc1 | inactive
N#Cc1c(-c2ccc(Cl)cc2)[nH]c(C(F)(F)F)c1Br | inactive
Nc1ccc2ccccc2c1 | inactive
CCCCOCCOP(=O)(OCCOCCCC)OCCOCCCC | inactive
CC(C)(C)c1ccc(O)cc1 | inactive
O=P(Oc1ccccc1)(Oc1ccccc1)Oc1ccccc1 | 3.68 µM (active)
O=S1(=O)OCC2C(CO1)C1(Cl)C(Cl)=C(Cl)C2(Cl)C1(Cl)Cl (configuration not stated) | 2.84 µM (active)
Nc1ccc([N+](=O)[O-])cc1Cl | inactive
CCCCc1ccc(O)cc1 | inactive

Input: Which AC50 value is on record for `CC(=O)c1ccc(-c2ccccc2)cc1` ?
Output: inactive

Input: Which AC50 value is on record for `O=S(=O)(c1ccc(O)cc1)c1ccc(O)cc1` ?
Output: inactive

Input: Which AC50 value is on record for `CO/N=C(/C(=O)OC)c1ccccc1COc1ccccc1C` ?
Output: 13.1 µM (active)

Input: Which AC50 value is on record for `CC(C)Nc1ccc(Nc2ccccc2)cc1` ?
Output: inactive

Input: Which AC50 value is on record for `Nc1cc2c3c(c1)C(c1ccccc1)=N[C@@H](NC(=O)c1cccnc1)C(=O)N3CC2` ?
Output: 27.6 µM (active)

Input: Which AC50 value is on record for `Cc1ccc(N)cc1N` ?
Output: inactive

Input: Which AC50 value is on record for CCOP(=S)(Oc1ccc([N+](=O)[O-])cc1)c1ccccc1 (configuration not stated) ?
Output: inactive

###

test: ATG_M_06_TRANS: Attagene TRANS-FACTORIAL HepG2 Assay for M06 Transcription Factor (Internal Marker) (AID 2282983); details: HepG2 Attagene TRANS M06 internal marker reporter
Results filed as inconclusive are left out. Active and inactive are the calls of the source. How the source made its calls: active means hit-call score of the fitted dose curve at least 0.9, where 1 is the maximum; inconclusive means response in the unintended direction; inactive means score below 0.9.
Respond with a class label; see active, inactive

Input: Look up the recorded call for `CCOC(=O)c1ccccc1N` in this test.
Output: inactive

Input: Look up the recorded call for `CC(C)(C)N(NC(=O)c1ccc(Cl)cc1)C(=O)c1ccccc1` in this test.
Output: inactive

Input: Look up the recorded call for `CCOP(=S)(OCC)SCS(=O)(=O)CC` in this test.
Output: inactive

Input: Look up the recorded call for `OCC(F)(F)OC(F)(F)C(F)(F)OC(F)(F)C(F)(F)OC(F)(F)F` in this test.
Output: inactive

Input: Look up the recorded call for CCC1(c2ccccc2)C(=O)N=C(O)NC1=O (stereo not drawn) in this test.
Output: inactive

Input: Look up the recorded call for `Cc1cccc(N)c1` in this test.
Output: inactive

Input: Look up the recorded call for `CCCCN(CCCC)SN(C)C(=O)Oc1cccc2c1OC(C)(C)C2` in this test.
Output: inactive

Input: Look up the recorded call for `CCNc1nc(Cl)nc(NC(C)(C)C)n1` in this test.
Output: inactive

Input: Look up the recorded call for `O=C(O)C(Cl)Cl` in this test.
Output: inactive

Input: Look up the recorded call for CC(Cl)CN(C)C (stereo not drawn) in this test.
Output: inactive

Input: Look up the recorded call for `c1nc[nH]n1` in this test.
Output: inactive

Input: Look up the recorded call for `C=CC(=O)OCC(CC)(COC(=O)C=C)COC(=O)C=C` in this test.
Output: inactive

Input: Look up the recorded call for `O=S(=O)(c1ccc(O)cc1)c1ccc(O)cc1` in this test.
Output: inactive

Input: Look up the recorded call for `O=[N+]([O-])c1cc(Cl)ccc1Cl` in this test.
Output: inactive

Input: Look up the recorded call for `CCCCCCCc1ccc(O)cc1` in this test.
Output: inactive

Input: Look up the recorded call for `Nc1cc2c3c(c1)C(c1ccccc1)=N[C@@H](NC(=O)c1cccnc1)C(=O)N3CC2` in this test.
Output: inactive

Input: Look up the recorded call for `O=[N+]([O-])c1ccccc1` in this test.
Output: inactive

Input: Look up the recorded call for `CCOP(=O)(O)C(N)=O` in this test.
Output: inactive

Input: Look up the recorded call for `N#Cc1cc([N+](=O)[O-])ccc1N` in this test.
Output: inactive

Input: Look up the recorded call for `CCCCOCCOP(=O)(OCCOCCCC)OCCOCCCC` in this test.
Output: inactive

Input: Look up the recorded call for `O=C(CBr)OCc1ccccc1` in this test.
Output: inactive

Input: Look up the recorded call for `Nc1ccc2ccccc2c1` in this test.
Output: inactive

Input: Look up the recorded call for `COP(=O)(CCC(=O)NCO)OC` in this test.
Output: inactive

Input: Look up the recorded call for `[N-]=[N+]=[N-]` in this test.
Output: inactive

Input: Look up the recorded call for `O=c1ssc(Cl)c1Cl` in this test.
Output: inactive

Input: Look up the recorded call for `Cc1ccc(N)cc1N` in this test.
Output: inactive

Input: Look up the recorded call for `CCCCc1ccc(O)cc1` in this test.
Output: inactive

Input: Look up the recorded call for `C/C(=N\NC(=O)Nc1cc(F)cc(F)c1)c1ncccc1C(=O)O` in this test.
Output: inactive

Input: Look up the recorded call for `ClC(Cl)(Cl)c1ccccc1` in this test.
Output: inactive

Input: Look up the recorded call for `Cc1cc(C)c(C(=O)P(=O)(c2ccccc2)c2ccccc2)c(C)c1` in this test.
Output: active

Input: Look up the recorded call for `Oc1ccccc1Br` in this test.
Output: inactive

Input: Look up the recorded call for `O=P(Oc1ccccc1)(Oc1ccccc1)Oc1ccccc1` in this test.
Output: inactive

Input: Look up the recorded call for `CO/N=C(/C(=O)OC)c1ccccc1COc1ccccc1C` in this test.
Output: inactive

Input: Look up the recorded call for `CC(Cl)(Cl)C(=O)O` in this test.
Output: inactive

Input: Look up the recorded call for `Oc1ccc(I)cc1` in this test.
Output: inactive

Input: Look up the recorded call for COC(=O)C(F)(F)C(F)(F)OC(F)(C(F)(F)F)C(F)(F)OC(F)=C(F)F (stereo not drawn) in this test.
Output: inactive

Input: Look up the recorded call for O=P(OCC(Br)CBr)(OCC(Br)CBr)OCC(Br)CBr (stereo not drawn) in this test.
Output: inactive

Input: Look up the recorded call for CCOP(=S)(NC(C)C)Oc1ccccc1C(=O)OC(C)C (stereo not drawn) in this test.
Output: inactive

Input: Look up the recorded call for CCCCC(CC)COC(=O)c1c(Br)c(Br)c(Br)c(Br)c1C(=O)OCC(CC)CCCC (stereo not drawn) in this test.
Output: inactive

Input: Look up the recorded call for `COCCOCCO` in this test.
Output: inactive

Input: Look up the recorded call for `CCOP(=S)(S)OCC` in this test.
Output: inactive

Input: Look up the recorded call for `CC1=C(C(=O)Nc2ccccc2)S(=O)(=O)CCO1` in this test.
Output: inactive

Input: Look up the recorded call for OCC1CO1 (stereo not drawn) in this test.
Output: inactive
